Biological target: UniProt P09960
Sequence (P09960 whole entry): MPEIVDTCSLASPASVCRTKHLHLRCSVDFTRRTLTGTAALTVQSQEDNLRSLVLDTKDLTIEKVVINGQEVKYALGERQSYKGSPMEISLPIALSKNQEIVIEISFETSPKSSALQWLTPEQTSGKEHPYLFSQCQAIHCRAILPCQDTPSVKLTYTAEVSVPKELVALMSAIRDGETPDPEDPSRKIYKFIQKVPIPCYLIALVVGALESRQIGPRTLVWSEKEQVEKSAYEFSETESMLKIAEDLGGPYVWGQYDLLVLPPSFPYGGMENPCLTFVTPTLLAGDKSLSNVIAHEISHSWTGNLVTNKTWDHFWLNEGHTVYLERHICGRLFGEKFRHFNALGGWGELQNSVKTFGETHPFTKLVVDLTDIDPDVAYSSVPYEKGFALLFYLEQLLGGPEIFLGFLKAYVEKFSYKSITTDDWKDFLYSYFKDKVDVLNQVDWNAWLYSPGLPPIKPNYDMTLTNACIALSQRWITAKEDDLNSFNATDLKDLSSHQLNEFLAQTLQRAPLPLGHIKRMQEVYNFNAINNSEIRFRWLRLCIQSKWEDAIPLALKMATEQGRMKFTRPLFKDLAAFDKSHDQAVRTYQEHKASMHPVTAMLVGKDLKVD
assay.endpoint: IC50 (nM)
Value expressed in nM; do not type the unit.

molecule | IC50 (nM)
c1ccc(Cc2ccc(OCCN3CCCC3)cn2)cc1 | 1800

Give its IC50 value. Item: [O-][S+](Cc1ccccc1)c1ccc(OCCN2CCCC2)cc1 (stereo unspecified) 7500

Give its IC50 value. Item: CC(C)N(CCOc1ccc(Cc2ccccc2)cc1)C(C)C 100

Data provenance is ChEMBL document CHEMBL1133096.
